Read-out: Broad substrate specificity ATP-binding cassette transporter ABCG2 (Homo sapiens) (UniProt Q9UNQ0)
Sequence (Q9UNQ0 whole entry, looked up): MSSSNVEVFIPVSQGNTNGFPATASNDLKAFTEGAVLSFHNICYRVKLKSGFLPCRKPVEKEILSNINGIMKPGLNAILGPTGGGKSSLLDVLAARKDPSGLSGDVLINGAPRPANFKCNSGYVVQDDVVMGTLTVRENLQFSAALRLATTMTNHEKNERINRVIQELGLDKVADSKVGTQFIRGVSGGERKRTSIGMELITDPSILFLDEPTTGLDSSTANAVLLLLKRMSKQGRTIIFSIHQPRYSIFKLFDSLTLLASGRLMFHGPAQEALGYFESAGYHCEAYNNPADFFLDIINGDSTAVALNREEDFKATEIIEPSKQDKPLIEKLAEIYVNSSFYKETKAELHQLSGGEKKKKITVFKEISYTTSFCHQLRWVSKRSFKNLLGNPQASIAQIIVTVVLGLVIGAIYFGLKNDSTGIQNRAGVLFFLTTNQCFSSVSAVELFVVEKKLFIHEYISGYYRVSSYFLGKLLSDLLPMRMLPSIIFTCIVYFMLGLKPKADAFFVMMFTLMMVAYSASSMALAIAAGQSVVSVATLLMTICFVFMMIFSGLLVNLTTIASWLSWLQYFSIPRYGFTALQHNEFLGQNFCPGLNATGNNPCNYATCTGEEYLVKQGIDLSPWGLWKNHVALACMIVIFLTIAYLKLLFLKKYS
Assay: LTEA_HepaRG_ABCG2: Life Technologies and Expression Analysis (LTEA) Assay for ABC Transporter (ABCG2) using HepaRG (AID 2283465)
Conditions: mRNA level, 48 h; actives raise or lower the signal
Activity calls are given as the source filed them. Rule for the calls: active = hit-call score of the fitted dose curve at least 0.9, where 1 is the maximum; inactive = score below 0.9.
measured property: AC50

molecule=CCCCCCCC(=O)O reported_result=inactive
molecule="OC1CCC(C2CCCCC2)CC1 (stereo not drawn)" reported_result=inactive
molecule=CC(C)(C)c1cccc(C(C)(C)C)c1O reported_result=inactive
molecule=Cc1oc(-c2ccccc2)nc1CCOc1ccc(C[C@H](Nc2ccccc2C(=O)c2ccccc2)C(=O)O)cc1 reported_result="27.7 µM (active)"
molecule=O=c1c(-c2ccc(O)cc2)coc2cc(O)ccc12 reported_result=inactive

Reported AC50 of `NC(=O)N(O)[C@@H]1C=C[C@H](Oc2cccc(Oc3ccc(F)cc3)c2)C1` : 34.9 µM (active)

The reported measurements were obtained from PubChem BioAssay (EPA / NIEHS).
